System: 898857-211-R-J1-PDC complex spheroids, growth % test/control
experiment: Anticancer human tumor 898857-211-R-J1-PDC patient-derived melanoma cell line growth inhibition [RAS]
condition.info: second compound 0.003 µM; first compound 0.1 µM; active compounds read low
measurement.kind: viability, T/C (%)
Use % as the unit, but write only the number.

Return viability, T/C for the following compound: Nc1ccn(C2OC(CO)C(O)C2(F)F)c(=O)n1 (centres undefined) + CCn1c(-c2cccnc2C(C)OC)c2c3cc(ccc31)N1CCOC(CC(NC(=O)C(C(C)C)N(C)C(=O)C3(F)CCN(C(=O)C#CC(C)(C)N(C)C)CC3)C(=O)N3CCCC(N3)C(=O)OCC(C)(C)C2)C1
5.43

Return viability, T/C for the following compound: CC(C)NCC(C(=O)N1CCN(c2ncnc3c2C(C)CC3O)CC1)c1ccc(Cl)cc1 (centres undefined) + CCn1c(-c2cc(N3CCN(C)CC3)cnc2C(C)OC)c2c3cc(ccc31)-c1csc(n1)CC(NC(=O)C1CC1C)C(=O)N1CCCC(N1)C(=O)OCC(C)(C)C2
106

Return viability, T/C for the following compound: Nc1ccn(C2OC(CO)C(O)C2(F)F)c(=O)n1 (centres undefined) + CCn1c(-c2cc(N3CCN(C)CC3)cnc2C(C)OC)c2c3cc(ccc31)-c1csc(n1)CC(NC(=O)C1CC1C)C(=O)N1CCCC(N1)C(=O)OCC(C)(C)C2
4.05

Return viability, T/C for the following compound: Cc1nc(N2CCC3(CC2)COC(C)C3N)c(CO)nc1Sc1ccnc(N)c1Cl (centres undefined) + CCn1c(-c2cc(N3CCN(C)CC3)cnc2C(C)OC)c2c3cc(ccc31)-c1csc(n1)CC(NC(=O)C1CC1C)C(=O)N1CCCC(N1)C(=O)OCC(C)(C)C2
92.2

###

For each record, write down the corresponding viability, T/C.
System: 898857-211-R-J1-PDC complex spheroids, growth % test/control
experiment: Anticancer human tumor 898857-211-R-J1-PDC cell line growth inhibition [RAS];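 further: spheroids exposed to compound for seven days before readout; 100% = DMSO vehicle control wells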
condition.info: second compound 0.0949 µM; first compound 0.01 µM; active compounds read low
Use % as the unit, but write only the number.

Return viability, T/C for the following compound: CC(C)n1nc(-c2ccc3oc(N)nc3c2)c2c(N)ncnc21 + CCn1c(-c2cc(N3CCN(C)CC3)cnc2C(C)OC)c2c3cc(ccc31)-c1csc(n1)CC(NC(=O)C1CC1C)C(=O)N1CCCC(N1)C(=O)OCC(C)(C)C2
64.6

Return viability, T/C for the following compound: Nc1ccn(C2OC(CO)C(O)C2(F)F)c(=O)n1 (centres undefined) + CCn1c(-c2cccnc2C(C)OC)c2c3cc(ccc31)N1CCOC(CC(NC(=O)C(C(C)C)N(C)C(=O)C3(F)CCN(C(=O)C#CC(C)(C)N(C)C)CC3)C(=O)N3CCCC(N3)C(=O)OCC(C)(C)C2)C1
15.7

Return viability, T/C for the following compound: C=CC(=O)N1CCN(c2nc(OCC3CCCN3C)nc3c(F)c(-c4nc(N)cc(C)c4C(F)(F)F)c(Cl)cc23)C(C)C1 (centres undefined) + CCn1c(-c2cc(N3CCN(C)CC3)cnc2C(C)OC)c2c3cc(ccc31)-c1csc(n1)CC(NC(=O)C1CC1C)C(=O)N1CCCC(N1)C(=O)OCC(C)(C)C2
117

Return viability, T/C for the following compound: Nc1ccn(C2OC(CO)C(O)C2(F)F)c(=O)n1 (centres undefined) + CCn1c(-c2cc(N3CCN(C)CC3)cnc2C(C)OC)c2c3cc(ccc31)-c1csc(n1)CC(NC(=O)C1CC1C)C(=O)N1CCCC(N1)C(=O)OCC(C)(C)C2
25.8
